Reported values: IC50 for Diacylglycerol O-acyltransferase 2 (Homo sapiens, UniProt Q96PD7), one per item.
readout-name: IC50 (nM)

[P] CC(C)(C)NC(=O)N1CCc2c(-c3cccc(C(F)(F)F)c3)ccc(C(=O)NCc3nc(-c4ccccn4)no3)c2C1
[Q] CC(C)(C)NC(=O)N1CCc2c(-c3cccc(C(F)(F)F)c3)ccc(C(=O)NCc3noc(-c4ccccc4)n3)c2C1
In terms of reported IC50, does P or Q have the smaller number? Answer with the label corresponding to your selection.
Q
